- Test system: human embryonic lung (HEL) cells
- testParameters: HEL cell cultures; minimum cytotoxic concentration; Table 2 (VZV)
Consider the following compounds and their measured Cytotoxicity Cell Morphology MCC readings.
readoutLabel: Cytotoxicity Cell Morphology MCC

[[record]]
compound = "CCOP(=O)(OCC)[C@H]1C[C@H](c2nc3ccccc3c(=O)n2Cc2ccc([N+](=O)[O-])cc2)ON1C (relative stereo) [trans-11e/cis-11e (90:10)]"
tgt = "human embryonic lung (HEL) cells"
value = "100 μM"

[[record]]
compound = "CCOP(=O)(OCC)[C@H]1C[C@H](c2nc3ccccc3c(=O)n2Cc2ccc(F)cc2F)ON1C (relative stereo) [trans-11i/cis-11i (97:3)]"
tgt = "human embryonic lung (HEL) cells"
value = "100 μM"

[[record]]
compound = "O=c1[nH]c(=O)n([C@H]2C[C@H](O)[C@@H](CO)O2)cc1/C=C/Br [Brivudin, reference compound]"
tgt = "human embryonic lung (HEL) cells"
value = ">100 μM"

[[record]]
compound = "CCOP(=O)(OCC)[C@H]1C[C@H](c2nc3ccccc3c(=O)n2Cc2ccccc2F)ON1C (relative stereo) [trans-11f/cis-11f (90:10)]"
tgt = "human embryonic lung (HEL) cells"
value = "100 μM"

[[record]]
compound = "CCOP(=O)(OCC)[C@H]1C[C@H](c2nc3ccccc3c(=O)n2Cc2ccccc2[N+](=O)[O-])ON1C (relative stereo) [trans-11c]"
tgt = "human embryonic lung (HEL) cells"
value = ">100 μM"

[[record]]
compound = "CCOP(=O)(OCC)[C@H]1C[C@H](c2nc3ccccc3c(=O)n2Cc2ccc(F)cc2)ON1C (relative stereo) [trans-11h]"
tgt = "human embryonic lung (HEL) cells"
value = "100 μM"

[[record]]
compound = "CCOP(=O)(OCC)[C@H]1C[C@H](c2nc3ccccc3c(=O)n2CC)ON1C (relative stereo) [trans-11k/cis-11k (97:3)]"
tgt = "human embryonic lung (HEL) cells"
value = ">100 μM"

